Molecular target: recombinant N-terminal PMS2 (residues 1-365) (Homo sapiens (Human))
Assay: Fluorescence polarisation assay for PMS2
Conditions: 10 nM N-terminal PMS2, 5 nM fluorescent probe compound; 30 min pre-incubation, read after 1 hour at room temperature
Counter-ions that a name gives are not always drawn.
Measured quantity: IC50

1) C=CC(=O)Nc1cccc2c1CN(C(=O)c1c(O)cc(O)cc1OCc1ccccc1)C2 : 100 to 1000 nM

What IC50 value was documented for this compound, COc1c(C)c(O)cc(O)c1C(=O)N1Cc2ccc(N(C)C(=O)/C=C/CN(C)C)cc2C1 ? 100 to 1000 nM

// IC50 lookup, key: Cc1c(O)cc(O)c(C(=O)N2Cc3cccc(NC(=O)/C=C/CN4CCCC4)c3C2)c1OCC1CCCCC1 < 100 nM

# query: IC50 of entry C=CC(=O)Nc1cccc2c1CN(C(=O)c1c(O)cc(O)c(C)c1OCc1ccccc1)C2 < 100 nM

Can you share its IC50? I mean this compound: C=CC(=O)N(C)c1cccc2c1CN(C(=O)c1c(O)cc(O)c(C)c1OC)C2 100 to 1000 nM

Form field: reported IC50 of Cc1c(O)cc(O)c(C(=O)N2Cc3ccc(NC(=O)/C=C/CN(C)C)cc3C2)c1OCC1CCCCC1 100 to 1000 nM

Sample Cc1c(O)cc(O)c(C(=O)N2CCc3cccc(NC(=O)/C=C/CN(C)C)c3C2)c1OCC1CCCCC1 — what was its IC50? 100 to 1000 nM

Name the reported IC50 value associated with the compound Cc1c(O)cc(O)c(C(=O)N2Cc3cccc(N(C)C(=O)/C=C/CN(C)C)c3C2)c1OCC1CC1 100 to 1000 nM

Which IC50 value belongs to COc1c(C)c(O)cc(O)c1C(=O)N1Cc2cccc(OC/C=C/C(=O)N(C)C)c2C1 ? 100 to 1000 nM

Report IC50 for Cc1c(O)cc(O)c(C(=O)N2Cc3cccc(NC(=O)/C=C/CN(C)C)c3C2)c1OCC(F)(F)F please. < 100 nM

I am curious: what IC50 value has been reported for COc1c(C)c(O)cc(O)c1C(=O)N1CCc2ccc(NC(=O)/C=C/CN(C)C)cc2C1 ? 100 to 1000 nM

Looking for the measured IC50 of C=CC(=O)Nc1ccc2c(c1)CN(C(=O)c1c(O)cc(O)c(C)c1OCC1CCCCC1)C2 , can you help? < 100 nM

// query IC50 value for entry Cc1c(O)cc(O)c(C(=O)N2Cc3cccc(NC(=O)/C=C/CN(C)C)c3C2)c1OCC1CC1 < 100 nM

What IC50 value was documented for this compound, Cc1c(O)cc(O)c(C(=O)N2Cc3cccc(NC(=O)/C=C/CN4CCOCC4)c3C2)c1OCC1CCCCC1 [Example 10, hydrochloride] ? < 100 nM

Would you mind telling me what IC50 value was observed for CN(C)C/C=C/C(=O)Nc1cccc2c1CN(C(=O)c1c(O)cc(O)cc1OCc1ccccc1)C2 ? < 100 nM

Given the entry CCOc1c(C)c(O)cc(O)c1C(=O)N1Cc2cccc(NC(=O)/C=C/CN(C)C)c2C1 , report its measured IC50. < 100 nM

---

Target: recombinant N-terminal PMS2 (residues 1-365) (Homo sapiens (Human), UniProt P54278)
Sequence (P54278 1-365): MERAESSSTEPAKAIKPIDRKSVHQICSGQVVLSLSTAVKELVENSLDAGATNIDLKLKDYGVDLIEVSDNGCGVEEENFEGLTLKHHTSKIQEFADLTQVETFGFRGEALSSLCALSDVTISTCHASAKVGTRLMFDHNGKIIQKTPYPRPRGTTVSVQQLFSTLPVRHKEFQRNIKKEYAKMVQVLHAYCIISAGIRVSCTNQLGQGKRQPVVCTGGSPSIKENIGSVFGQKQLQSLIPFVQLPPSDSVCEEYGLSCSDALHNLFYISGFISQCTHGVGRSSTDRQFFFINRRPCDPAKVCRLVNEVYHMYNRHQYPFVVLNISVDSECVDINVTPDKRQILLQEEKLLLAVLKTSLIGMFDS
Assay: Fluorescence polarisation assay for PMS2
Type: binding
Settings: 10 nM N-terminal PMS2, 5 nM fluorescent probe compound; 30 min pre-incubation, read after 1 hour at room temperature
# IC50 per record follows

Worked examples follow.
1. COc1c(C)c(O)cc(O)c1C(=O)N1Cc2ccc(OC/C=C/C(=O)N(C)C)cc2C1 : 100 to 1000 nM
2. C/C=C/C(=O)Nc1cccc2c1CN(C(=O)c1c(O)cc(O)c(C)c1OCC1CCCCC1)C2 : > 1000 nM

# IC50 lookup, item C=C(F)C(=O)Nc1cccc2c1CN(C(=O)c1c(O)cc(O)cc1OCc1ccccc1)C2 > 1000 nM

# query: IC50 of entry COc1c(C)c(O)cc(O)c1C(=O)N1Cc2cccc(N(C)C(=O)/C=C/CN(C)C)c2C1 < 100 nM

For the compound Cc1c(O)cc(O)c(C(=O)N2CCc3ccc(NC(=O)/C=C/CN(C)C)cc3C2)c1OCC1CCCCC1 , what IC50 is on record? < 100 nM

Can you look up the measured IC50 of COc1c(C)c(O)cc(O)c1C(=O)N1Cc2ccc(NC(=O)/C=C/CN(C)C)cc2C1 for me? 100 to 1000 nM

Query (compound): C=C(CN1CCOCC1)C(=O)Nc1cccc2c1CN(C(=O)c1c(O)cc(O)c(C)c1OC)C2 ; field requested: IC50 100 to 1000 nM

Need IC50 of CC#CC(=O)Nc1cccc2c1CN(C(=O)c1c(O)cc(O)c(C)c1OCC1CCCCC1)C2 , thanks. 100 to 1000 nM

IC50 for C=CC(=O)Nc1ccc2c(c1)CN(C(=O)c1c(O)cc(O)c(C)c1OCC1CCCCC1)CC2 ? < 100 nM

Given the entry COc1c(C)c(O)cc(O)c1C(=O)N1CCc2ccc(N(C)C(=O)/C=C/CN(C)C)cc2C1 , report its measured IC50. 100 to 1000 nM

What measured IC50 goes with C=C(F)C(=O)Nc1cccc2c1CN(C(=O)c1c(O)cc(O)c(C)c1OCc1ccccc1)C2 ? > 1000 nM

Return reported IC50; argument: C=CC(=O)Nc1cccc2c1CN(C(=O)c1c(O)cc(O)c(C)c1OCC1CCCCC1)CC2 100 to 1000 nM

Look up IC50: Cc1c(O)cc(O)c(C(=O)N2Cc3cccc(NC(=O)/C=C/CN(C)C)c3C2)c1OCc1ccccc1 < 100 nM

FYI, the data here is from patent US20240425453A1.
